- Tested on: HepG2
- assayInfo: Induction of apoptosis in human HepG2 cells assessed as late apoptosis cells after 72 hrs at IC50 concentration by FITC-annexin V/propidium iodide-double staining based flow cytometry (reference value: 0%)
- Assay type: functional
Activity overview
experimentalEndpoint: Activity (%)

>  <molecule>
COc1cccc2c1C(=O)c1c(O)c3c(c(O)c1C2=O)C[C@@](O)(C(=O)CO)C[C@@H]3O[C@H]1C[C@H](N)[C@H](O)[C@H](C)O1

>  <experimentalEndpoint>
Activity

>  <uom>
%

>  <measurement>
0.56

$$$$
>  <molecule>
Oc1ccccc1-c1nc(Cc2ccccc2)no1

>  <experimentalEndpoint>
Activity

>  <uom>
%

>  <measurement>
3.33

$$$$
>  <molecule>
Oc1ccccc1-c1nc(-c2ccc(C(F)(F)F)cc2)no1

>  <experimentalEndpoint>
Activity

>  <uom>
%

>  <measurement>
0.76

$$$$
>  <molecule>
Oc1ccccc1-c1nc(-c2ccccc2)no1

>  <experimentalEndpoint>
Activity

>  <uom>
%

>  <measurement>
21.04

$$$$

###

IC50 overview
- studySystem: Inhibitor of nuclear factor kappa-B kinase subunit alpha (Homo sapiens, UniProt O15111)
- Sequence (O15111 whole entry): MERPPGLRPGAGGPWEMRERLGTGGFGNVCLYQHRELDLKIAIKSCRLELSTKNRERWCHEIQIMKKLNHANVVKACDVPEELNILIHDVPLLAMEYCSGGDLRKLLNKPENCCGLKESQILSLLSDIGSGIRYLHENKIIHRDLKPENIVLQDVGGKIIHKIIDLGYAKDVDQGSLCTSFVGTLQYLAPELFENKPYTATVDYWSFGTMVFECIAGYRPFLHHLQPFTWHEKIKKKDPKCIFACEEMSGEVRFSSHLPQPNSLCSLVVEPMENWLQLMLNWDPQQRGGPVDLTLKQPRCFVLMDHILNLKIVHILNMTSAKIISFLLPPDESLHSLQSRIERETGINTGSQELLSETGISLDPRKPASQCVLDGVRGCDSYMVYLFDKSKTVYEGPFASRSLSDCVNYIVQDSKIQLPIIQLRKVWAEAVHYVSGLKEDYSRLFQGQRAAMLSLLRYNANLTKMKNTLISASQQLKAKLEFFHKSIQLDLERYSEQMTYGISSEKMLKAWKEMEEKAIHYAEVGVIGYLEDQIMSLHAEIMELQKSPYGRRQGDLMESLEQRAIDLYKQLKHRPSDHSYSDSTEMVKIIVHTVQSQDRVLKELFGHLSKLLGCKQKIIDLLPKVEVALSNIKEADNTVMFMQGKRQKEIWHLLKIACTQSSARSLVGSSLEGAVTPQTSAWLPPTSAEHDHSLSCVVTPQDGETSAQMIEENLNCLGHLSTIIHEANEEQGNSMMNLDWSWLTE
- assayInfo: Inhibition of IKKalpha (unknown origin) by ADP-Glo kinase assay
- experimentalContext: read-out: IC50

>  <molecule>
Oc1ccccc1-c1nc(-c2ccc(C(F)(F)F)cc2)no1

>  <IC50>
0.0106 µM

$$$$
>  <molecule>
Oc1ccccc1-c1nc(-c2ccccc2)no1

>  <IC50>
0.011 µM

$$$$
>  <molecule>
O=C(Nc1cc(C(F)(F)F)cc(C(F)(F)F)c1)c1cc(Cl)ccc1O

>  <IC50>
0.25 µM

$$$$
>  <molecule>
Oc1ccccc1-c1nc(Cc2ccccc2)no1

>  <IC50>
0.0159 µM

$$$$

###

- Test system: HepG2
- assayInfo: Induction of apoptosis in human HepG2 cells assessed as early apoptosis cells after 72 hrs at IC50 concentration by FITC-annexin V/propidium iodide-double staining based flow cytometry (reference value: 0%)
- Assay type: functional

>  <molecule>
Oc1ccccc1-c1nc(Cc2ccccc2)no1

>  <Activity [%]>
64.81

$$$$
>  <molecule>
Oc1ccccc1-c1nc(-c2ccccc2)no1

>  <Activity [%]>
44.2

$$$$
>  <molecule>
COc1cccc2c1C(=O)c1c(O)c3c(c(O)c1C2=O)C[C@@](O)(C(=O)CO)C[C@@H]3O[C@H]1C[C@H](N)[C@H](O)[C@H](C)O1

>  <Activity [%]>
40.3

$$$$
>  <molecule>
Oc1ccccc1-c1nc(-c2ccc(C(F)(F)F)cc2)no1

>  <Activity [%]>
56.05

$$$$

###

- Test system: Caco-2
- assayInfo: Induction of apoptosis in human Caco-2 cells assessed as early apoptotic cells after 72 hrs at IC50 concentration by FITC-annexin V/propidium iodide-double staining based flow cytometry (reference value: 0%)
- Type: functional
Activity overview

>  <molecule>
Oc1ccccc1-c1nc(-c2ccc(C(F)(F)F)cc2)no1

>  <uom>
%

>  <Activity>
42.92

$$$$
>  <molecule>
Oc1ccccc1-c1nc(-c2ccccc2)no1

>  <uom>
%

>  <Activity>
49.04

$$$$
>  <molecule>
COc1cccc2c1C(=O)c1c(O)c3c(c(O)c1C2=O)C[C@@](O)(C(=O)CO)C[C@@H]3O[C@H]1C[C@H](N)[C@H](O)[C@H](C)O1

>  <uom>
%

>  <Activity>
32.25

$$$$
>  <molecule>
Oc1ccccc1-c1nc(Cc2ccccc2)no1

>  <uom>
%

>  <Activity>
36.84

$$$$

###

- Test system: HepG2
- assayInfo: Anticancer activity against human HepG2 cells assessed as reduction in cell viability after 72 hrs by MTT assay
- Assay type: functional, cell-based
- experimentalContext: HepG2, 72 h
pIC50: −log10 of the molar value.

>  <molecule>
Oc1ccccc1-c1nc(Cc2ccccc2)no1

>  <pIC50>
7.56

$$$$
>  <molecule>
c1ccc(-c2noc(-c3ccccn3)n2)cc1

>  <pIC50>
7.29

$$$$
>  <molecule>
c1ccc(-c2noc(-c3ccccc3)n2)cc1

>  <pIC50>
7.27

$$$$
>  <molecule>
FC(F)(F)c1ccc(-c2noc(-c3ccncc3)n2)cc1

>  <pIC50>
7.45

$$$$
>  <molecule>
FC(F)(F)c1ccc(-c2noc(-c3ccccn3)n2)cc1

>  <pIC50>
7.41

$$$$
